procedure_summary: Caco-2 permeation assay
Assay type: in vitro ADME, human
conditions_used: human, Caco-2, pH 7.2, Caco-2, 2 μM test compound, apical to basolateral; read-out: Papp A-B (Mari)
quantity_measured: Papp A→B at 2 h, 2 µM (×10⁻⁶ cm/s)

Below, each entry is followed by its recorded Papp A→B at 2 h, 2 µM result.
INSERT INTO results (compound, endpoint_unit, measured_value) VALUES
  ('COc1cc(F)ccc1-c1cc(Nc2cc(CS(C)(=N)=O)cc(C)n2)ncc1F (racemic)', '×10⁻⁶ cm/s', 19.6),
  ('COc1cc(F)ccc1-c1cc(Nc2cc(CS(C)(=N)=O)cc(F)n2)ncc1F (racemic)', '×10⁻⁶ cm/s', 14.1),
  ('COc1cc(F)ccc1-c1cc(Nc2cc(CS(C)(=N)=O)ccn2)ncc1F (racemic) [Example 1]', '×10⁻⁶ cm/s', 15.5),
  ('COc1cc(F)ccc1-c1cc(Nc2cc(CS(C)(=N)=O)cc(C(F)(F)F)n2)ncc1F (racemic) [Example 21]', '×10⁻⁶ cm/s', 5.1),
  ('CCS(=N)(=O)Cc1ccnc(Nc2cc(-c3ccc(F)cc3OC)c(F)cn2)c1 (racemic)', '×10⁻⁶ cm/s', 18.6);

I = COc1cc(F)ccc1-c1cc(Nc2cc(CS(=N)(=O)CCO)ccn2)ncc1F (racemic)
II = COc1cc(F)ccc1-c1cc(Nc2cc(CS(C)(=N)=O)ccn2)ncc1F (single isomer, unassigned; (+)) [Example 2]
### Prompt Lower value of Papp A→B at 2 h, 2 µM belongs to which: I or II ? API: response body contains the label of the selected item.
### Response I
(I: 4.1 ×10⁻⁶ cm/s, II: 16.6 ×10⁻⁶ cm/s)
